Experiment: activity coefficient (dimensionless); of the first substance listed, at infinite dilution; xn = mol fraction of the nth substance listed
Conditions: 318.15 K; 101 kPa; Liquid; Chromatography; x1 = 0
Catalogue of activity coefficient readings, one per entry.
// return just the number, without any unit appended

Worked examples, 3 molecules total:
{"MOLECULE": "CCO [ethanol] + CCCC[N+]1(C)CCOCC1.N#C[C-](C#N)C#N", "REPORTED_PROPERTY": "activity coefficient", "QUANTITATIVE_RESULT": 1.26}
{"MOLECULE": "CCC(C)CC [3-methylpentane] + CCCC[N+]1(C)CCOCC1.N#C[C-](C#N)C#N", "REPORTED_PROPERTY": "activity coefficient", "QUANTITATIVE_RESULT": 51.3}
{"MOLECULE": "CC(C)CC(C)(C)C [2,2,4-trimethylpentane] + CCCC[N+]1(C)CCOCC1.N#C[C-](C#N)C#N", "REPORTED_PROPERTY": "activity coefficient", "QUANTITATIVE_RESULT": 103}

activity coefficient in this record for c1ccncc1 [pyridine] + CCCC[N+]1(C)CCOCC1.N#C[C-](C#N)C#N : 0.733

activity coefficient in this record for CC(C)O [propan-2-ol] + CCCC[N+]1(C)CCOCC1.N#C[C-](C#N)C#N : 1.71

activity coefficient in this record for C1CCOC1 [tetrahydrofuran] + CCCC[N+]1(C)CCOCC1.N#C[C-](C#N)C#N : 1.12

activity coefficient in this record for CCCCCCCCCC [decane] + CCCC[N+]1(C)CCOCC1.N#C[C-](C#N)C#N : 289

activity coefficient in this record for CCC(=O)OC [methyl propanoate] + CCCC[N+]1(C)CCOCC1.N#C[C-](C#N)C#N : 1.64

activity coefficient in this record for CCOCC [diethyl ether] + CCCC[N+]1(C)CCOCC1.N#C[C-](C#N)C#N : 5.39

Where do these numbers come from? They come from the NIST ThermoML archive (doi:10.1016/j.jct.2013.08.030).
